System: HCT116
Test: MTT cell viability assay
Type: cell-based, human
Conditions: Homo sapiens, HCT-116, HCT116 colorectal cancer cells
Quantity Kind: pIC50
One number for each entry, as −log10 of the molar value.

Below, each entry is followed by its recorded pIC50 result.
>>> df
                                   compound  quantity_kind  observed_result
0  O=C1NC(=O)C(=Cc2cn(CCOc3ccc(Cl)cc3Cl)c3ccccc23)C(=O)N1          pIC50             4.70
1  Cc1c(C=C2C(=O)NC(=S)NC2=O)c2ccccc2n1CCOc1cccc(C(F)(F)F)c1          pIC50             4.90
2  O=C1NC(=O)C(=Cc2cn(CCOc3cccc(F)c3)c3ccccc23)C(=O)N1          pIC50             4.41
3  O=C1NC(=O)C(=Cc2cn(CCOc3cccc4ccccc34)c3ccccc23)C(=O)N1          pIC50             4.95
4  Cc1c(C=C2C(=O)NC(=S)NC2=O)c2ccccc2n1CCOc1ccc(F)cc1          pIC50             5.27
5  Cc1ccc(OCCn2c(C)c(C=C3C(=O)NC(=S)NC3=O)c3ccccc32)c(C)c1 [ZLDI-8, reference compound]          pIC50             5.11

Below are some compounds; for each one, tell me its pIC50.
1. O=C1NC(=O)C(=Cc2cn(CCOc3cccc(C(F)(F)F)c3)c3ccccc23)C(=O)N1
2. Cc1c(C=C2C(=O)NC(=O)NC2=O)c2ccccc2n1CCOc1ccc(F)cc1
3. Cc1c(C=C2C(=O)NC(=S)NC2=O)c2ccccc2n1CCOc1cccc2ccccc12
4. Cc1c(C=C2C(=O)NC(=S)NC2=O)c2ccccc2n1CCOc1cccc(F)c1
5. Cc1c(C=C2C(=O)NC(=O)NC2=O)c2ccccc2n1CCOc1cccc(F)c1
6. Cc1c(C=C2C(=O)NC(=S)NC2=O)c2ccccc2n1CCOc1ccc(Cl)cc1Cl

Resp:
1: 4.45; 2: 4.36; 3: 4.89; 4: 4.56; 5: 4.94; 6: 4.58
